- tested on: Cellular tumor antigen p53 (Homo sapiens) (UniProt P04637)
- Sequence (P04637 whole entry, looked up): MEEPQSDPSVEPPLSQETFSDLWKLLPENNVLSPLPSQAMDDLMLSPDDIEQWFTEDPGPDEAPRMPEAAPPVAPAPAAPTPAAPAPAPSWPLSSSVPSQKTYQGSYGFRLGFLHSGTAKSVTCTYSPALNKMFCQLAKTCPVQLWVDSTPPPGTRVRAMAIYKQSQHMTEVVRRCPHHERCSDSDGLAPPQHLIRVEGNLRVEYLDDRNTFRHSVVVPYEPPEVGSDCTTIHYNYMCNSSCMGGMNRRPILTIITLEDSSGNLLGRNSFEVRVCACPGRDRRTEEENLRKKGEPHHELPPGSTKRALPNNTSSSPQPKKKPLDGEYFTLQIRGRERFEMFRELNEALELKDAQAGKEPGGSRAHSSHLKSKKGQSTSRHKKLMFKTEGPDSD
- protocol details: TOX21_p53_BLA_p2_ratio: Tox21 HCT-116 p53 Agonism Beta-lactamase Assay, Ratio, Phase 2 (AID 2283592)
Records with an inconclusive call do not appear. Active and inactive are the calls of the source. Rule for the calls: active = hit-call score of the fitted dose curve at least 0.9, where 1 is the maximum; inconclusive = response in the unintended direction; inactive = score below 0.9.
parameter: AC50

Below: 8 compounds and their reported AC50.
[
  {
    "compound": "O=C(O)C[C@H](NC(=O)OCc1ccccc1)C(=O)O",
    "AC50": "inactive"
  },
  {
    "compound": "CC(=O)CCc1ccc(OC(C)=O)cc1",
    "AC50": "inactive"
  },
  {
    "compound": "CCCCN(CCCC)C(=S)SSC(=S)N(CCCC)CCCC",
    "AC50": "inactive"
  },
  {
    "compound": "N#CC(c1ccc(Cl)cc1)c1c(Cl)cc(-n2ncc(=O)[nH]c2=O)cc1Cl (stereo not drawn)",
    "AC50": "19.6 µM (active)"
  },
  {
    "compound": "COC(OC)C(C)c1ccccc1 (stereo not drawn)",
    "AC50": "inactive"
  },
  {
    "compound": "CC(C)CC(=O)CC(C)C",
    "AC50": "inactive"
  },
  {
    "compound": "O=C(O)c1cc(=O)c2ccccc2o1",
    "AC50": "inactive"
  },
  {
    "compound": "CNCC[C@@H](Oc1ccccc1C)c1ccccc1",
    "AC50": "inactive"
  }
]

The recorded AC50 for entry O=C(CS)Nc1ccccc1 equals inactive

# AC50 of O=C(O)C(S)C(S)C(=O)O (stereo not drawn) = inactive

The compound listed as NC(=S)NC(N)=S shows AC50 equal to inactive

The compound identified as CC(C)(C#N)Nc1nc(Cl)nc(NC2CC2)n1 registered its AC50 at inactive

Recorded AC50 (compound COc1cc(NS(=O)(=O)c2ccc(N)cc2)ncn1 ): inactive

response.value for C=C(C)C(=O)OCCCCCCCCCCCCC (field: AC50) = inactive

###

- protocol details: CCTE_Shafer_MEA_dev_AB: CCTE's Alamar Blue Assay for Cytotoxicity in the Neural Network Formation Assay, Shafer Lab (AID 2284083);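 note: resazurin reduction fluorescence as viability of cultured neurons; twelve days of exposure from plating with re-dosing on DIV 5 and 9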
Records with an inconclusive call do not appear. Calls of active or inactive are those of the source. The calls were made as follows: active = hit-call score of the fitted dose curve at least 0.9, where 1 is the maximum; inconclusive = response in the unintended direction; inactive = score below 0.9.
Log the outcome using a class from Yes (active), No (inactive)

Please indicate how the test categorized CN(C)CCC(c1ccc(Cl)cc1)c1ccccn1 (centres undefined) .
No

Called result for [Cl-].[Cl-].[NH2-].[NH2-].[Pt+4]
No

Write down the call the test reported for this compound. Item: COc1ccc2cc3[n+](cc2c1OC)CCc1cc2c(cc1-3)OCO2
Yes

Hi, sorry to bother you, what did the test record for CNCCC(Oc1ccc(C(F)(F)F)cc1)c1ccccc1 (centres undefined) ?
Yes

###

- tested on: Cellular tumor antigen p53 (Homo sapiens)
- protocol details: TOX21_p53_BLA_p4_ratio: Tox21 HCT-116 p53 Agonism Beta-lactamase Assay, Ratio, Phase 4 (AID 2283601)
Records with an inconclusive call do not appear. Calls of active or inactive are those of the source. Rule for the calls: active = hit-call score of the fitted dose curve at least 0.9, where 1 is the maximum; inconclusive = response in the unintended direction; inactive = score below 0.9.
Lab note: assign the record to one of active, inactive

Recorded call for CCOC(=O)O[C@]1(C(=O)COC(=O)CC)CC[C@H]2[C@@H]3CCC4=CC(=O)C=C[C@]4(C)[C@H]3[C@@H](O)C[C@@]21C ?
inactive

Recorded call for CCCCCCCCCCCCOCCOCCOCCOCCOCCOCCOCCOCCOCCO ?
active

Test call, this compound: CN(C/C=C/c1ccccc1)Cc1cccc2ccccc12
inactive

What was the test verdict on NC(=O)c1cc[n+](CC2=C(C(=O)O)N3C(=O)[C@@H](NC(=O)[C@@H](c4ccccc4)S(=O)(=O)[O-])[C@H]3SC2)cc1 ?
inactive

Recorded test call requested for Clc1ccc(Sc2cc(Cl)c(Cl)cc2Cl)cc1
inactive

Which outcome did this test record for the compound NC(=O)C(=O)NN=Cc1ccc([N+](=O)[O-])o1 ?
active

Could you please tell me the result logged for CCOC(=O)Cn1c(=O)sc2cccc(Cl)c21 in this assay?
inactive

For this compound, state the assay outcome: CC(=O)OCC(=O)[C@@]1(O)CCC2C3CCC4=CC(=O)CC[C@]4(C)C3C(O)C[C@@]21C (stereo not given in full)
inactive

Hello, I am checking results. What call was entered for NC(N)=Nc1nc(CSCCC(N)=NS(N)(=O)=O)cs1 ?
inactive

Outcome logged for CC(C)=C1CC[C@@H](C)CC1=O in this assay:
inactive

###

- tested on: human Peripheral-type Benzodiazepine Receptor (PBR), TSPO (gene 706) (UniProt P30536)
- Sequence (P30536 whole entry, looked up): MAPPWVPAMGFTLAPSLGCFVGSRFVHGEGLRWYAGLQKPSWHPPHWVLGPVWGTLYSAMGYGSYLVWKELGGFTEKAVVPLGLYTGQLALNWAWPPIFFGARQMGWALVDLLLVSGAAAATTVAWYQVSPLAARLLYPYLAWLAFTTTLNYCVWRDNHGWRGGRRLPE
- protocol details: NVS_MP_hPBR: NovaScreen (NVS) Membrane Protein Assay for human Peripheral-type Benzodiazepine Receptor (PBR) (AID 2283331);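 note: hits reduce radioligand binding relative to DMSO baseline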
Inconclusive results are not listed. Calls of active or inactive are those of the source. How the source made its calls: active means hit-call score of the fitted dose curve at least 0.9, where 1 is the maximum; inconclusive means response in the unintended direction; inactive means score below 0.9.
Please go through the items and note down their AC50.

In plain terms, O=C(C(=O)c1ccccc1)c1ccccc1 has a documented AC50 of 9.56 µM (active)

// Cc1cc(O)cc(C)c1Cl : AC50 value = 8.12 µM (active)

Short answer for CN(C)c1ccc(C(c2ccccc2)c2ccc(N(C)C)cc2)cc1 : AC50 was 2.78 µM (active)

AC50 reported for this compound CC[N+](CC)(CC(=O)Nc1c(C)cccc1C)Cc1ccccc1 (tested in a mixture with another compound) : 4.38 µM (active)

###

- protocol details: ATG_EGR_CIS: Attagene CIS-FACTORIAL HepG2 Assay for human Early Growth Response 1 (EGR1) (AID 2282938)
- details: HepG2 Attagene CIS-FACTORIAL EGR reporter mRNA; actives raise or lower the signal
Active and inactive are the calls of the source. The calls were made as follows: active = hit-call score of the fitted dose curve at least 0.9, where 1 is the maximum; inactive = score below 0.9.
parameter: outcome

[
  {
    "compound": "Cc1cc(-n2nc3ccc(Cl)cc3n2)c(O)c(C(C)(C)C)c1",
    "result value": "inactive"
  },
  {
    "compound": "O=C(c1ccccc1)c1ccccc1O",
    "result value": "inactive"
  },
  {
    "compound": "CC(C)(Oc1ccc(Cl)cc1)C(=O)O",
    "result value": "inactive"
  },
  {
    "compound": "O=C(O)c1nc(Cl)c(Cl)c(Cl)c1Cl",
    "result value": "inactive"
  },
  {
    "compound": "O=C1NC(=O)[C@@H]2CC=CC[C@H]12",
    "result value": "inactive"
  },
  {
    "compound": "CC1=C(CC(=O)O)c2cc(F)ccc2/C1=C\\c1ccc(S(C)=O)cc1 (stereo unspecified)",
    "result value": "inactive"
  }
]

Let us examine a further case.
Lab note: measured outcome of OCCOCCOCCOCCOCCO was inactive

###

- protocol details: ATG_GAL4_TRANS: Attagene TRANS-FACTORIAL HepG2 Assay for GAL4 (Internal Marker) (AID 2282976)
- details: HepG2 Attagene TRANS GAL4 internal marker reporter
Inconclusive results are not listed. Active and inactive are the calls of the source. Rule for the calls: active = hit-call score of the fitted dose curve at least 0.9, where 1 is the maximum; inconclusive = response in the unintended direction; inactive = score below 0.9.
parameter: outcome

Study these solved cases before continuing.
[
  {
    "molecule": "CC1=NN(c2cc(Cl)c(S(=O)(=O)O)cc2Cl)C(=O)C1N=Nc1ccc(S(=O)(=O)O)cc1 (stereo unspecified)",
    "parameter": "outcome",
    "result value": "inactive"
  },
  {
    "molecule": "O=C(OCc1ccccc1)c1ccccc1",
    "parameter": "outcome",
    "result value": "inactive"
  },
  {
    "molecule": "O=C(CC(C(=O)OC1CCCCC1)S(=O)(=O)O)OC1CCCCC1 (stereo unspecified)",
    "parameter": "outcome",
    "result value": "inactive"
  },
  {
    "molecule": "CCCCCCOC(=O)CCCCCCCC(=O)OCCCCCC",
    "parameter": "outcome",
    "result value": "inactive"
  },
  {
    "molecule": "CC[N+](CC)(CC(=O)Nc1c(C)cccc1C)Cc1ccccc1 (tested in a mixture with another compound)",
    "parameter": "outcome",
    "result value": "inactive"
  },
  {
    "molecule": "CC(=O)OC(C)(C)Cc1ccccc1",
    "parameter": "outcome",
    "result value": "inactive"
  },
  {
    "molecule": "CC=CC(=O)O",
    "parameter": "outcome",
    "result value": "inactive"
  },
  {
    "molecule": "CCCCNC(N)=O",
    "parameter": "outcome",
    "result value": "inactive"
  }
]

The reported value for CC(O)(P(=O)(O)O)P(=O)(O)O in terms of outcome is inactive

###

- protocol details: TOX21_p53_BLA_p4_viability: Viability Assessment in the Tox21 HCT-116 p53 Agonism Beta-lactamase Assay, Phase 4 (AID 2283597);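 note: hits lower the luminescence signal meaning cytotoxicity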
Results filed as inconclusive are left out. Calls of active or inactive are those of the source. Rule for the calls: active = hit-call score of the fitted dose curve at least 0.9, where 1 is the maximum; inconclusive = response in the unintended direction; inactive = score below 0.9.
Pick from active, inactive when you respond.

Write down the call the test reported for this molecule. Item: NS(=O)(=O)c1cc2c(cc1C(F)(F)F)NCNS2(=O)=O
inactive

Test call, this molecule: CCCCC(O)c1ccccc1 (stereo not given)
inactive

Status in this test for CC(C)N=c1cc2n(-c3ccc(Cl)cc3)c3ccccc3nc-2cc1Nc1ccc(Cl)cc1 ?
inactive

Would you mind telling me which call this test gave CNC(=O)c1cc(Oc2ccc(NC(=O)Nc3ccc(Cl)c(C(F)(F)F)c3)cc2)ccn1 ?
inactive

Recorded test outcome, item C[C@@H]1O[C@@H](OC[C@H]2O[C@@H](Oc3c(-c4ccc(OCCO)c(OCCO)c4)oc4cc(OCCO)cc(O)c4c3=O)[C@H](O)[C@@H](O)[C@@H]2O)[C@H](O)[C@H](O)[C@H]1O
inactive

Hi team, can someone confirm the assay call for CCC(C)[C@H]1O[C@]2(C=C[C@@H]1C)C[C@@H]1C[C@@H](C/C=C(\C)[C@@H](O[C@H]3C[C@H](OC)[C@@H](O[C@H]4C[C@H](OC)[C@H](NC(C)=O)[C@H](C)O4)[C@H](C)O3)[C@@H](C)/C=C/C=C3\CO[C@@H]4[C@H](O)C(C)=C[C@@H](C(=O)O1)[C@]34O)O2 (stereo not given in full) ?
active

Entry CCCCCCCCCCCCCCC(=O)O : call = ?
inactive

Outcome? CCCCCCCCCCCCOCCOCCOCCOCCOCCOCCOCCOCCOCCO
active

Could you please tell me the result logged for O=C(CN1CCN(Cc2ccc3c(c2)OCO3)CC1)N1c2ccccc2Sc2ccccc21 in this assay?
inactive

Hello, I am checking results. What call was entered for C[C@@H]1CCC2[C@@H](C)[C@@H](O)O[C@@H]3O[C@@]4(C)CC[C@@H]1[C@@]23OO4 (stereo not given in full) ?
inactive

Look up the recorded call for CCN(CC)CCCN(c1ccccc1)C1Cc2ccccc2C1 in this test.
active

For this molecule, state the assay outcome: Nc1ncnc2c1ncn2[C@@H]1O[C@H](COP(=O)(O)OP(=O)(O)OP(=O)(O)O)[C@@H](O)[C@H]1O
inactive

Name the outcome recorded for CCCC(C)CC (stereo not given) in the assay.
inactive

Test call for this molecule, please: C[C@H]1C[C@H]2[C@@H]3CCC4=CC(=O)C=C[C@]4(C)[C@@]3(Cl)[C@@H](O)C[C@]2(C)[C@@]1(O)C(=O)CO
inactive

Recorded call for O=C1c2c(O)cccc2[C@H]([C@@H]2O[C@H](CO)[C@@H](O)[C@H](O)[C@H]2O)c2cc(CO)cc(O)c21 ?
inactive

Per the records of this test, what outcome belongs to CCN(Cc1ccccc1)c1ccccc1 ?
inactive

Test call, this molecule: N=C(N)c1ccc(OCCCOc2ccc(C(=N)N)cc2Br)c(Br)c1
inactive

Please state the recorded outcome for this molecule: Cc1cscn1
inactive

Please state the recorded outcome for this molecule: COCCCN
inactive

Per the assay record, what outcome was assigned to Cc1ccccc1OCC1CO1 (stereo not given) ?
inactive

From: PubChem BioAssay (EPA / NIEHS)
